# reported EC50; entries follow
# TESTED_TARGET: T1, recombinant protein hTIGIT-ECD-mFC (human; mouse, UniProt Q495A1 24-155)
# T1 construct: range 24-155; Expressed in 293E cells; also called human TIGIT-ECD-mFc; not shown: murine IgG2a Fc domain of the vector MX2-mFc
# T1 sequence (looked up): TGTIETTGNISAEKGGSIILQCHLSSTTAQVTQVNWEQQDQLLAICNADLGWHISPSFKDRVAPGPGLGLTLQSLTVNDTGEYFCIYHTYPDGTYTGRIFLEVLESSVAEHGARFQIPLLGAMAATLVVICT
# ASSAY_PROTOCOL: ELISA, human TIGIT-ECD-mFc coated at 0.5 ug/mL, anti-IgG4-HRP
# Method: The solution in wells was then discarded, and the wells were washed 3 times with a washing buffer and blocked for 60 minutes with PBS containing 2% BSA. After the plate was washed 3 times with the washing buffer, humanized antibody dilutions at different concentrations were added. […] The absorbance at 450 nm was measured by a plate reader.
Report the figure in µg/mL without appending any unit label.

Sample records with EC50:
{"BINDER": "humanized antibody hu3 (antibody, human IgG4 S228P, kappa, V domains shown, Humanized from 2O18) VH: QVQLVQSGAEVKKPGASVKVSCKTSGYAFTEYTMHWVRQAPGQGLEWMGGINPNTGGTTYNQKFQGRVTLTVDKSSSTAYMELSRLRSDDTVVYYCAKLLRLMYYFDYWGQGTLVTVSS VL: DIVMTQSPDSLAVSLGERATINCKASQDVRTAVAWYQQKPGQPPKLLIYSASYRYTGVPDRFSGSGSGTDFTLTISSLQAEDVAVYYCHQHYITPWTFGGGTKVEIKR", "EC50, µg/mL": 0.0232}
{"BINDER": "humanized antibody hu69 (antibody, V domains shown, Humanized from 23O20; detected with anti-IgG4-HRP in the ELISA, constant regions not otherwise stated) VH: QVQLVQSGAEVKKPGASVKVSCKASGYTFTNYWILWIRQAPGQGLEWMGDIYPGGHYTNYNEKFQGRVTLTADTSSSTAYMELSRLRSDDTAVYYCTRYYGPYAMDYWGQGTLVTVSS VL: DIVMTQSPLSLPVTPGEPASISCRSSQSLLYNSNQKNYLAWYLQKPGQSPQLLIYWASTGESGVPDRFSGSGSGTDFTLKISRVEAEDVGVYYCQQYYSYPFTFGQGTKLEIK", "EC50, µg/mL": 0.0107}

Prompt: Item humanized antibody hu20 (antibody, human IgG4 S228P, kappa, V domains shown, Humanized from 2O18) VH: QVQLVQSGAEVKKPGASVKVSCKTSGYAFTEYTMHWVRQAPGKGLEWMGGINPNTGGTTYNQKFQGRVTLTVDKSSSTAYMELSSLRSEDTVVYYCAKLLRLMYYFDYWGQGTLVTVSS VL: DIQMTQSPSSLSASVGDRVTITCQASQDVRTAVAWYQQKPGKAPKLLIYSASYRYTGVPSRFSGSGSGTDFTFTISSLQPEDIATYYCHQHYITPWTFGGGTKVEIKR has what recorded EC50?
Response: 0.0378
